Test system: maximum electroshock seizure (MES) model
Test: Maximum electroshock seizure (MES) model test
Type: in vivo, mice
Details: Mus musculus, po, 1 h, 100 mg/kg oral, Slc: ddY male mice, 3 per group, electrical stimulation 1 hour after administration; inhibition of hind limb extension; read-out: MES (positive number/tested number) (converted)
Recorded measurements of responders at 100 mg/kg, one per entry
Please state the figure in %; there is no need to write the unit.

Take a look at these entries with their results.
compound | unit-info | readout-value
NC(=O)C(O)c1cc(F)ccc1-c1cccc(F)c1 (stereo not drawn) [Example 188] | % | 100
COC(C(N)=O)c1ccccc1-c1cccc(F)c1 (stereo not drawn) [Example 199] | % | 100
NC(=O)Cc1ccccc1-c1cc(F)cc(F)c1F [Example 67] | % | 66.7
CNC(=O)Cc1ccccc1-c1ccc(F)cc1 [Example 23] | % | 100
O=C(Cc1ccccc1-c1ccccc1F)NC1CC1 [Example 172] | % | 100

Now examine the next entry.
[Q] Please report the recorded responders at 100 mg/kg for CNC(=O)Cc1ccc(Cl)cc1-c1ccccc1F [Example 126] .
[A] 66.7

###

System: subcutaneously pentetrazol-injected model (scPTZ)
Experiment: Subcutaneously pentetrazol-injected model (scPTZ) test
Type: in vivo, mice
Details: Mus musculus, po, 1 h, 100 mg/kg oral, Slc: ddY male mice, 3 per group, pentetrazol 85 mg/kg s.c. after 1 hour, observed 30 minutes for clonic convulsion; read-out: scPTZ (positive number/tested number) (converted)
measurement-label: responders at 100 mg/kg (%)
Please state the figure in %; there is no need to write the unit.

molecule | responders at 100 mg/kg (%)
CNC(=O)Cc1cc(C(F)(F)F)ccc1-c1ccccc1 | 66.7
CNC(=O)Cc1ccccc1-c1cccc(C)c1 | 66.7
NC(=O)Cc1ccccc1-c1ccccc1 [Example 50, 2-(biphenyl-2-yl)acetamide] | 33.3
NC(=O)C(F)(F)c1ccccc1-c1cccc(Cl)c1 | 100
NC(=O)Cc1ccccc1-c1ccccc1Cl [Example 16, 2-(2′-chlorobiphenyl-2-yl)acetamide] | 100
CNC(=O)Cc1ccccc1-c1ccc(OC(F)(F)F)cc1 | 33.3
NC(=O)Cc1cc(Cl)ccc1-c1ccccc1 | 0
CNC(=O)C(C)c1ccccc1-c1ccccc1 (centres unmarked) [Example 57, 2-(biphenyl-2-yl)-N-methyl propanamide] | 66.7

[Q] Please report the recorded responders at 100 mg/kg for "NC(=O)Cc1ccccc1-c1ccc(F)c(F)c1F" .
[A] 66.7

[Q] Please report the recorded responders at 100 mg/kg for NC(=O)Cc1cc(F)ccc1-c1ccccc1 [Example 44, 2-(4-fluorobiphenyl-2-yl)acetamide] .
[A] 0

[Q] Please report the recorded responders at 100 mg/kg for "NC(=O)Cc1ccccc1-c1ccc(Cl)cc1F" .
[A] 66.7

[Q] Please report the recorded responders at 100 mg/kg for "CNC(=O)Cc1c(F)cccc1-c1ccccc1" .
[A] 0

[Q] Please report the recorded responders at 100 mg/kg for "CNC(=O)Cc1ccccc1-c1ccccc1Cl" .
[A] 33.3

[Q] Please report the recorded responders at 100 mg/kg for NC(=O)C(O)c1ccccc1-c1cccc(Cl)c1 (centres unmarked) .
[A] 33.3

[Q] Please report the recorded responders at 100 mg/kg for "CNC(=O)Cc1ccccc1-c1cccc(C(F)(F)F)c1F" .
[A] 0

[Q] Please report the recorded responders at 100 mg/kg for "CNC(=O)Cc1cc(C(F)(F)F)ccc1-c1ccc(Cl)cc1" .
[A] 66.7

[Q] Please report the recorded responders at 100 mg/kg for "NC(=O)Cc1ccc(C(F)(F)F)cc1-c1cccc(F)c1" .
[A] 66.7

[Q] Please report the recorded responders at 100 mg/kg for "CN(C)C(=O)Cc1ccccc1-c1cccc(Cl)c1" .
[A] 0

[Q] Please report the recorded responders at 100 mg/kg for NC(=O)C(O)c1ccccc1-c1ccccc1Cl (centres unmarked) [Example 190] .
[A] 66.7

[Q] Please report the recorded responders at 100 mg/kg for COC(C(N)=O)c1ccccc1-c1ccccc1 (centres unmarked) [Example 61, 2-(Biphenyl-2-yl)-2-methoxyacetamide] .
[A] 100

###

Recorded measurements of responders at 50 mg/kg, one per entry
Tested on: subcutaneously pentetrazol-injected model (scPTZ)
Assay: Subcutaneously pentetrazol-injected model (scPTZ) test
Type: in vivo, mice
Conditions: Mus musculus, po, 1 h, 50 mg/kg oral, Slc: ddY male mice, 3 per group, pentetrazol 85 mg/kg s.c. after 1 hour, observed 30 minutes for clonic convulsion; read-out: scPTZ (positive number/tested number) (converted)
From the text: In order to evaluate the antiepileptic activity of each drug, maximum electroshock seizure (MES) model, subcutaneously pentetrazol-injected model (scPTZ), and amygdala kindling model in rats were used because they show a good clinical prediction. […] Test with Subcutaneously Pentetrazol-Injected Model (scPTZ) Similar to Test 1, Test 2 evaluates the anticonvulsant action of medicaments. […]
Please state the figure in %; there is no need to write the unit.

[Q] Please report the recorded responders at 50 mg/kg for NC(=O)Cc1ccccc1-c1cc(F)cc(C(F)(F)F)c1 [Example 73] .
[A] 0

[Q] Please report the recorded responders at 50 mg/kg for NC(=O)Cc1ccc(Cl)cc1-c1ccccc1F [Example 125] .
[A] 33.3

[Q] Please report the recorded responders at 50 mg/kg for NC(=O)C(O)c1ccccc1-c1ccccc1Cl (stereo not drawn) [Example 190] .
[A] 66.7

[Q] Please report the recorded responders at 50 mg/kg for NC(=O)Cc1cc(C(F)(F)F)ccc1-c1ccccc1 [Example 116] .
[A] 33.3

[Q] Please report the recorded responders at 50 mg/kg for NC(=O)Cc1ccccc1-c1cc(F)ccc1F [Example 152, 2-(2′,5′-difluorobiphenyl-2-yl)acetamide] .
[A] 66.7

[Q] Please report the recorded responders at 50 mg/kg for NC(=O)[C@H](O)c1ccccc1-c1cc(Cl)cc(Cl)c1 (single isomer, unassigned) [Example 215] .
[A] 0

[Q] Please report the recorded responders at 50 mg/kg for COC(C(=O)N(C)C)c1ccccc1-c1ccccc1F (stereo not drawn) [Example 202] .
[A] 0

[Q] Please report the recorded responders at 50 mg/kg for NC(=O)C(O)c1ccccc1-c1cc(F)ccc1Cl (stereo not drawn) [Example 185] .
[A] 66.7

[Q] Please report the recorded responders at 50 mg/kg for CNC(=O)C1(c2ccccc2-c2ccccc2F)CC1 [Example 157] .
[A] 66.7

###

Tested on: subcutaneously pentetrazol-injected model (scPTZ)
Test: Subcutaneously pentetrazol-injected model (scPTZ) test
Assay type: in vivo, mice
Details: Mus musculus, po, 1 h, 100 mg/kg oral, Slc: ddY male mice, 3 per group, pentetrazol 85 mg/kg s.c. after 1 hour, observed 30 minutes for clonic convulsion; read-out: scPTZ (positive number/tested number) (converted)
measurement-label: responders at 100 mg/kg (%)
Please state the figure in %; there is no need to write the unit.

compound | unit-info | responders at 100 mg/kg
CNC(=O)C(F)c1ccccc1-c1ccccc1 (stereo not shown) [Example 163] | % | 0

[Q] Please report the recorded responders at 100 mg/kg for CNC(=O)Cc1ccccc1-c1ccc(C(F)(F)F)cc1F [Example 97] .
[A] 33.3

[Q] Please report the recorded responders at 100 mg/kg for NC(=O)Cc1ccccc1-c1cc(F)cc(F)c1 [Example 153, 2-(3′,5′-difluorobiphenyl-2-yl)acetamide] .
[A] 100

[Q] Please report the recorded responders at 100 mg/kg for NC(=O)Cc1ccccc1-c1cccc(Cl)c1Cl [Example 19] .
[A] 0

[Q] Please report the recorded responders at 100 mg/kg for NC(=O)Cc1ccccc1-c1cccc(F)c1Cl [Example 86] .
[A] 66.7

[Q] Please report the recorded responders at 100 mg/kg for NC(=O)C(F)c1ccccc1-c1ccccc1F (stereo not shown) [Example 164] .
[A] 33.3

[Q] Please report the recorded responders at 100 mg/kg for CNC(=O)Cc1ccc(F)cc1-c1ccccc1 [Example 40] .
[A] 0

[Q] Please report the recorded responders at 100 mg/kg for NC(=O)Cc1ccccc1-c1ccccc1F [Example 1, 2-(2′-Fluorobiphenyl-2-yl)acetamide] .
[A] 66.7

[Q] Please report the recorded responders at 100 mg/kg for CNC(=O)C(C)c1ccccc1-c1ccccc1F (stereo not shown) [Example 58] .
[A] 66.7

[Q] Please report the recorded responders at 100 mg/kg for CN(C)C(=O)Cc1cc(Cl)ccc1-c1ccccc1F [Example 38] .
[A] 100

[Q] Please report the recorded responders at 100 mg/kg for NC(=O)Cc1ccccc1-c1cc(Cl)ccc1Cl [Example 95, 2-(2′,5′-dichlorobiphenyl-2-yl)acetamide] .
[A] 100

[Q] Please report the recorded responders at 100 mg/kg for NC(=O)Cc1ccc(F)cc1-c1ccccc1 [Example 39, 2-(5-fluorobiphenyl-2-yl)acetamide] .
[A] 66.7

[Q] Please report the recorded responders at 100 mg/kg for NC(=O)Cc1cc(F)ccc1-c1cccc(F)c1 [Example 133] .
[A] 33.3

[Q] Please report the recorded responders at 100 mg/kg for NC(=O)Cc1ccccc1-c1ccc(F)c(F)c1 [Example 21, 2-(3′,4′-difluorobiphenyl-2-yl)acetamide] .
[A] 100

[Q] Please report the recorded responders at 100 mg/kg for NC(=O)Cc1ccccc1-c1cc(Cl)ccc1C(F)(F)F [Example 91] .
[A] 66.7

[Q] Please report the recorded responders at 100 mg/kg for NC(=O)C(F)(F)c1ccccc1-c1ccccc1F [Example 169] .
[A] 33.3

[Q] Please report the recorded responders at 100 mg/kg for CCNC(=O)Cc1ccccc1-c1ccccc1C(F)(F)F [Example 8] .
[A] 66.7

[Q] Please report the recorded responders at 100 mg/kg for NC(=O)Cc1ccccc1-c1ccc(C(F)(F)F)cc1C(F)(F)F [Example 74] .
[A] 33.3

[Q] Please report the recorded responders at 100 mg/kg for NC(=O)Cc1cc(F)c(F)cc1-c1ccccc1 [Example 110] .
[A] 33.3
